biological target: KlLeu4 (Kluyveromyces lactis, UniProt Q6CIW1); construct: gene KLLA0_F23529g; expressed in E. coli BL21(DE3), Ni-NTA purified (tag not described); homodimer; test: initial velocity inhibition kinetics, global fit; type: biochemical; settings: read-out: Kis /
Sequence (Q6CIW1 1-609): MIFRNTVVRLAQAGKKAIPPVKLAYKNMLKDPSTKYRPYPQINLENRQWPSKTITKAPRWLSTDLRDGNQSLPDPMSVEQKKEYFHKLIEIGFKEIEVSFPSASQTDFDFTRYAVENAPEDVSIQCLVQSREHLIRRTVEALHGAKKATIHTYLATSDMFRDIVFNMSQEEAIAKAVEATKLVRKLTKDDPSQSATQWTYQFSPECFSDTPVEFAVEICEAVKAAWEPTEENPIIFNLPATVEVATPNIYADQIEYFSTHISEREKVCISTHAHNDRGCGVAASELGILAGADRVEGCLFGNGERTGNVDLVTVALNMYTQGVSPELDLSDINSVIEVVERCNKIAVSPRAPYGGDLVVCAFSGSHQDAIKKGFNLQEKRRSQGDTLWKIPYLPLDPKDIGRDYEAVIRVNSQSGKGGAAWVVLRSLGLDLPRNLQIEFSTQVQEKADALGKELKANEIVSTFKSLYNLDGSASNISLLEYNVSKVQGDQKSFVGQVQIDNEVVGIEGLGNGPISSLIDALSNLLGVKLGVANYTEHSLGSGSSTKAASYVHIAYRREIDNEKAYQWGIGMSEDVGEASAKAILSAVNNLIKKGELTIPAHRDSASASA
assayMetric: pKi
pKi here: minus log base 10 of the concentration, concentration in moles per litre.

# get_value(readout='pKi', item= `CC(C)C[C@H](N)C(=O)O` )
4.47

---

target: KlLeu4BIS (Kluyveromyces lactis, UniProt Q6CQU3); construct: gene KLLA0_D14201g; native untagged enzyme in whole cell extract of the Klleu4Δ single mutant; homodimer; assay: α-IPMS activity in whole cell extract, DTNB assay […] nm; type: biochemical; conditions: 0.25 mM acetyl-CoA, 10 mM α-KIV, 50 mM phosphate pH 7.5, 140 mM KCl, 4 mM MgCl2, 30 °C
assayMetric: IC50
Param answer (str): number followed by unit.

Lab request: please report IC50 under test system KlLeu4BIS (Kluyveromyces lactis, UniProt Q6CQU3) for `CC(C)C[C@H](N)C(=O)O`
37 µM
